Origin of measurements: patent US3950374A

Test system: green rice leafhoppers (Nephotettix cincpiceps)
testProtocol: Effect on green rice leafhoppers in soil treatment (Test Example 4)
Type: in vivo
runParameters: 6 % granules, 6 kg./10 ares soil treatment; released after 3 days, observed after 24 hours
Property: Mortality; scope: individual compounds
measurementName: Mortality (%)

INSERT INTO measurements (compound, measurementname, experimentalvalue) VALUES
  ('CN(C(=O)Oc1ccc(Cl)cc1)[S+]([O-])c1ccccc1 (stereo not drawn)', 'Mortality', 75.0),
  ('Cc1ccc(OC(=O)N(C)[S+]([O-])c2ccc([N+](=O)[O-])cc2)cc1C (stereo not drawn)', 'Mortality', 72.2),
  ('Cc1ccc([S+]([O-])N(C)C(=O)Oc2cccc(C)c2C)cc1 (stereo not drawn)', 'Mortality', 83.3),
  ('Cc1cccc(OC(=O)N(C)[S+]([O-])c2ccccc2)c1 (stereo not drawn)', 'Mortality', 96.7),
  ('CSC(C)=NOC(=O)N(C)[S+]([O-])c1ccccc1 (stereo not drawn)', 'Mortality', 70.0),
  ('Cc1cc(C)cc(OC(=O)N(C)[S+]([O-])c2ccccc2)c1 (stereo not drawn)', 'Mortality', 68.0);

----------
Quick list: Mortality after 7 days per entry.
Tested on: smaller brown planthoppers (Loadelphax striatellus)
testProtocol: Residual effect on smaller brown planthoppers (Test Example 11)
Type: in vivo
runParameters: 1000 fold dilute solution of 50 % emulsifiable concentrate; after 7 days (residual effect)
measurementName: Mortality after 7 days (%)

INSERT INTO measurements (molecule, experimentalvalue) VALUES
  ('Cc1ccc(OC(=O)N(C)[S+]([O-])c2ccc(Cl)cc2)cc1C (stereo not shown)', 75.0),
  ('Cc1ccc(OC(=O)N(C)[S+]([O-])c2ccccc2)c(C)c1 (stereo not shown)', 53.3),
  ('Cc1ccc(OC(=O)N(C)[S+]([O-])c2ccccc2)cc1C (stereo not shown)', 50.0),
  ('Cc1ccc(OC(=O)N(C)[S+]([O-])c2ccc([N+](=O)[O-])cc2)cc1C (stereo not shown)', 23.3),
  ('Cc1ccc([S+]([O-])N(C)C(=O)Oc2cccc(C)c2C)cc1 (stereo not shown)', 30.0),
  ('Cc1cccc(OC(=O)N(C)[S+]([O-])c2ccccc2)c1 (stereo not shown)', 46.7),
  ('CN(C(=O)Oc1ccc(Cl)cc1)[S+]([O-])c1ccccc1 (stereo not shown)', 20.0);

----------
System: nematode
testProtocol: Effect on nematode (Test Example 6)
Format: in vivo
runParameters: 500 ppm active ingredient; after 24 hours
Listed next: entries and their corresponding Mortality.
measurementName: Mortality (%)

INSERT INTO results (molecule, experimentalvalue) VALUES
  ('CN(C(=O)Oc1ccc(Cl)cc1)[S+]([O-])c1ccccc1 (stereo not shown)', 79.8),
  ('Cc1ccc(OC(=O)N(C)[S+]([O-])c2ccc(Cl)cc2)cc1C (stereo not shown)', 75.0),
  ('CCC[S+]([O-])N(C)C(=O)ON=C(C)SC (stereo not shown)', 100),
  ('CSC(C)=NOC(=O)N(C)[S+]([O-])c1ccccc1 (stereo not shown)', 100),
  ('Cc1ccc(OC(=O)N(C)[S+]([O-])c2ccccc2)cc1C (stereo not shown)', 100),
  ('CCCCCCCCCCCC[S+]([O-])N(C)C(=O)ON=C(C)SC (stereo not shown)', 100),
  ('CCCSC(C)=NOC(=O)N(C)[S+]([O-])c1ccc(Cl)cc1 (stereo not shown)', 65.0);
